# study-target: h KCa3.1 (Homo sapiens (Human))
# protocol-text: Electrophysiology patch clamp (PatchXpress)
# test-settings: CHO cells over-expressing h KCa3.1, read-out: IC50 Ephys
recorded-endpoint: IC50 (nM)

The examples below pair each entry with its known result.
[[record]]
compound = "NC(=O)CN1C(=O)OC(c2ccc(F)cc2)(c2ccc(F)cc2)[C@@H]1c1ccccc1"
study_target = "h KCa3.1 (Homo sapiens (Human))"
recorded_endpoint = "IC50"
number = 58

[[record]]
compound = "NC(=O)CN1C(=O)OC(c2ccc(F)cc2)(c2ccc(F)cc2)[C@@H]1c1ccc(F)cc1"
study_target = "h KCa3.1 (Homo sapiens (Human))"
recorded_endpoint = "IC50"
number = 45

[[record]]
compound = "NC(=O)CN1C(=O)OC(c2ccc(F)cc2)(c2ccc(F)cc2)[C@@H]1c1ccccc1Cl"
study_target = "h KCa3.1 (Homo sapiens (Human))"
recorded_endpoint = "IC50"
number = 63


a. NC(=O)CN1C(=O)OC(c2ccc(F)cc2)(c2ccc(F)cc2)[C@@H]1c1ccccc1F
b. NC(=O)CN1C(=O)OC(c2cccc(F)c2)(c2cccc(F)c2)[C@@H]1c1ccccc1F
c. NC(=O)CN1C(=O)OC(c2ccccc2F)(c2ccccc2F)[C@@H]1c1ccccc1F
In: Order each entry by recorded IC50, climbing from the minimum. I'd appreciate it if you listed the labels in the requested order.
Out: c, a, b

a. NC(=O)CN1C(=O)OC(c2ccccc2)(c2ccccc2)[C@@H]1c1ccccc1F
b. CCOC(=O)CN1C(=O)O[C@@H](c2cccc(C(F)(F)F)c2)[C@H]1c1ccc(F)cc1 (racemic)
In: For a and b , which recorded IC50 is lower? Please indicate the selected item by its label.
Out: a
(a: 15 nM, b: 62 nM)
